target: CYP2C9 (Homo sapiens, UniProt P11712); assay: Fluorimetric CYP inhibition assay, CYP2C9-MFC; settings: human, % Inhibition (set 2), positive control 1.67 μM; MFC
Sequence (P11712 whole entry): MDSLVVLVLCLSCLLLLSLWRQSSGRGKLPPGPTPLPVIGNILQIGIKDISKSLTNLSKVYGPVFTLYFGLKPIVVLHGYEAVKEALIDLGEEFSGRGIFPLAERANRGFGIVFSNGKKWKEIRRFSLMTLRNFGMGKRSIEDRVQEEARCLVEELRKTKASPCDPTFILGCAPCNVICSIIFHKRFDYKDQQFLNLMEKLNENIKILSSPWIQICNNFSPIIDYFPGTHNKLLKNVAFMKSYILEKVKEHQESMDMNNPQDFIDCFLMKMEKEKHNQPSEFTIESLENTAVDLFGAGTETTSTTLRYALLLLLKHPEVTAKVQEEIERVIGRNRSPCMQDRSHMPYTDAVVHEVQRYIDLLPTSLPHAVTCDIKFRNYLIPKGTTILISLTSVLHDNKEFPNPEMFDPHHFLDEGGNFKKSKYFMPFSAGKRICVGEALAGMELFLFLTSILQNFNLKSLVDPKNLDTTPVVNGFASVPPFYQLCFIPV
recorded_metric: inhibition at 1.67 μM (%)
The response must be a number in % with no trailing unit.

Please report the recorded inhibition at 1.67 μM for Nc1ccc(S(=O)(=O)Nc2ccnn2-c2ccccc2)cc1 [Sulfaphenazole] .
74

====

biological target: UniProtKB P33261; test: in vitro; details: % Inhibition (set 2)
Sequence (P33261 whole entry): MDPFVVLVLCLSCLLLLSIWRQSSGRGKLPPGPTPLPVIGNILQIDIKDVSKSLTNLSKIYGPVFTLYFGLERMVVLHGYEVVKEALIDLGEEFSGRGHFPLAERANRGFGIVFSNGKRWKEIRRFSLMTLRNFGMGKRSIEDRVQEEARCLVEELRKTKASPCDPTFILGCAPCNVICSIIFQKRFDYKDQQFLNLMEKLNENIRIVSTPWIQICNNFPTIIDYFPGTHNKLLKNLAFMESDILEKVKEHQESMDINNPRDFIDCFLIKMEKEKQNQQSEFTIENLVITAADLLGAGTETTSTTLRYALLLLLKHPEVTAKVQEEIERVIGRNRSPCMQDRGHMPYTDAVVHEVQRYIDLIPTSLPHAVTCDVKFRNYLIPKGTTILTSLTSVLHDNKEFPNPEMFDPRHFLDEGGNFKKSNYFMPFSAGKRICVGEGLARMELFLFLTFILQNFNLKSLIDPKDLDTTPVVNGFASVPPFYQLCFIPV
Listed next: entries and their corresponding inhibition at 100 μM.
The response must be a number in % with no trailing unit.

>  <smiles_text>
CC(C)(CCCCCCCCCCCCC(C)(C)C(=O)O)C(=O)O

>  <inhibition at 100 μM (%)>
70

$$$$

Please report the recorded inhibition at 100 μM for "CC(C)(CCCCCCCCCCC(C)(C)CC(=O)O)CC(=O)O" .
7
